- Test system: HaCaT
- METHOD: Cell survival index, biocompatibility on healthy cells
- Format: cell-based, Human
- CONDITION NOTES: 48 h of incubation, mean ± SEM (n = 15)
MEASUREMENT LABEL: IC50 (µM)
Reply numerically in µM, unit not repeated.

Looking for the measured IC50 of [NH2][Pt]([NH2])([Cl])[Cl] [cDDP, cisplatin] , can you help?
50

* * *

- Test system: MDA-MB-231
- METHOD: Cell survival index (MTT assay plus automated cell count), IC50
- Type: cell-based, Human
- CONDITION NOTES: MDA-MB-231 TNBC cells, 48 h of incubation, mean ± SEM (n = 15)
MEASUREMENT LABEL: IC50 (µM)
Please state the figure in µM; there is no need to write the unit.

So what's the measured IC50 for this one? [NH2][Pt]([NH2])([Cl])[Cl] [cDDP, cisplatin]
11
